EXPERIMENT_SUMMARY: physchem
APPLIED_CONDITIONS: FaSSIF, 23 °C, thermodynamic from solid
METRIC: solubility thermodynamic at 24 h (µg/mL)
// return numeric value only (unit: µg/mL, not printed)

Kindly note the recorded solubility thermodynamic at 24 h for `CC[C@@H](COP(=O)(O)O)OC(=O)OCOc1c2n(cc(C(=O)NCc3ccc(F)cc3F)c1=O)[C@@H]1CN(C2=O)[C@@H](C)CC[C@]12CC(C)=NO2` , which is 4760

Kindly note the recorded solubility thermodynamic at 24 h for `COC1=NO[C@@]2(CC[C@H](C)N3C[C@H]2n2cc(C(=O)NCc4ccc(F)cc4F)c(=O)c(OCOC(=O)OC(C)(C)COP(=O)(O)O)c2C3=O)C1` , which is 4620

Kindly note the recorded solubility thermodynamic at 24 h for `COC1=NO[C@@]2(CC[C@H](C)N3C[C@H]2n2cc(C(=O)NCc4ccc(F)cc4F)c(=O)c(OCOC(=O)OCCN(CC(=O)O)C(=O)OCOP(=O)(O)O)c2C3=O)C1` , which is 3020

Kindly note the recorded solubility thermodynamic at 24 h for `CC1=NO[C@@]2(CC[C@H](C)N3C[C@H]2n2cc(C(=O)NCc4ccc(F)cc4F)c(=O)c(OC(=O)OCC(C)(C)COP(=O)(O)O)c2C3=O)C1` , which is 4380

Kindly note the recorded solubility thermodynamic at 24 h for `COC1=NO[C@@]2(CC[C@H](C)N3C[C@H]2n2cc(C(=O)NCc4ccc(F)cc4F)c(=O)c(OCOC(=O)OC[C@H](C)OP(=O)(O)O)c2C3=O)C1` , which is 4400

Kindly note the recorded solubility thermodynamic at 24 h for `CC[C@H](COC(=O)OCOc1c2n(cc(C(=O)NCc3ccc(F)cc3F)c1=O)[C@@H]1CN(C2=O)[C@@H](C)CC[C@]12CC(C)=NO2)OP(=O)(O)O` , which is 4840

Kindly note the recorded solubility thermodynamic at 24 h for `CC1=NO[C@@]2(CC[C@H](C)N3C[C@H]2n2cc(C(=O)NCc4ccc(F)cc4F)c(=O)c(OCOC(=O)O[C@@H](C)[C@H](C)OP(=O)(O)O)c2C3=O)C1` , which is 4400

Kindly note the recorded solubility thermodynamic at 24 h for `CC1=NO[C@@]2(CC[C@H](C)N3C[C@H]2n2cc(C(=O)NCc4ccc(F)cc4F)c(=O)c(OCOC(=O)C(C)(C)CCN(CC(=O)O)C(=O)OCOP(=O)(O)O)c2C3=O)C1` , which is 5420

Kindly note the recorded solubility thermodynamic at 24 h for `CC1=NO[C@@]2(CC[C@H](C)N3C[C@H]2n2cc(C(=O)NCc4ccc(F)cc4F)c(=O)c(OCOC(=O)CC(C)(C)COP(=O)(O)O)c2C3=O)C1` , which is 5600

Kindly note the recorded solubility thermodynamic at 24 h for `CC1=NO[C@@]2(CC[C@H](C)N3C[C@H]2n2cc(C(=O)NCc4ccc(F)cc4F)c(=O)c(OCOC(=O)O[C@H](C)[C@@H](C)OP(=O)(O)O)c2C3=O)C1` , which is 4660
